Source: patent US10307404B1

assay-procedure: PK of topical ocular sodium phosphate-based Gel Drop, concentrations 1 hour after last dose
Type: in vivo, Dutch-belted rabbits
experimental-context: Dutch-belted, rabbit, aqueous humor (AH), 1 mg/ml, pH 6, 1 mg/ml pH 6.0 Phos 0.2% BAK 0.005% Gly 2% PS80 1% Tylox 0.2%, 3x/day 5 days, read-out: Mean [AH]
endpoint-name: concentration at 1 h

[[record]]
compound = "Cl.NC(=O)c1c(OCc2c(F)cc(Br)cc2F)nsc1NC(=O)NCCCCN1CCCC1 [Compound-I, hydrochloride]"
endpoint_name = "concentration at 1 h"
value_reported = "6.27 nM"


---

assay-procedure: PK of topical ocular sodium phosphate-based Gel Drop, concentrations 1 hour after last dose
Format: in vivo, Dutch-belted rabbits
experimental-context: Dutch-belted, rabbit, aqueous humor (AH), 2 mg/ml, pH 6, 2 mg/ml pH 6 Phos 0.2% BAK 0.005% Gly 2% Osmo 257, 3x/day 5 days, read-out: Mean [AH]
endpoint-name: concentration at 1 h

[[record]]
compound = "Cl.NC(=O)c1c(OCc2c(F)cc(Br)cc2F)nsc1NC(=O)NCCCCN1CCCC1 [Compound-I, hydrochloride]"
endpoint_name = "concentration at 1 h"
value_reported = "29.5 nM"


---

assay-procedure: PK of topical ocular sodium phosphate-based Gel Drop, concentrations 1 hour after last dose
Format: in vivo, Dutch-belted rabbits
experimental-context: Dutch-belted, rabbit, choroid, 1 mg/ml, pH 6, 1 mg/ml pH 6 BAK 0.005% Gly 2% PS80 1% Tylox 0.1% Polox 0.2% Osmo 237, 3x/day 5 days, read-out: MEAN [choroid]
endpoint-name: concentration at 1 h (nM)

[[record]]
compound = "Cl.NC(=O)c1c(OCc2c(F)cc(Br)cc2F)nsc1NC(=O)NCCCCN1CCCC1 [Compound-I, hydrochloride]"
value_reported = 339


---

assay-procedure: PK of topical ocular sodium phosphate-based Gel Drop, concentrations 1 hour after last dose
Assay type: in vivo, Dutch-belted rabbits
experimental-context: Dutch-belted, rabbit, aqueous humor (AH), 2 mg/ml, pH 6.1, 2 mg/ml pH 6.1 Phos […] Osmo 34, 3x/day 4 days, read-out: Mean [AH]
endpoint-name: concentration at 1 h

[[record]]
compound = "Cl.NC(=O)c1c(OCc2c(F)cc(Br)cc2F)nsc1NC(=O)NCCCCN1CCCC1 [Compound-I, hydrochloride]"
endpoint_name = "concentration at 1 h"
value_reported = "13.7 nM"


---

assay-procedure: PK of topical ocular sodium phosphate-based Gel Drop, concentrations 1 hour after last dose
Type: in vivo, Dutch-belted rabbits
experimental-context: Dutch-belted, rabbit, aqueous humor (AH), 1 mg/ml, pH 6, 1 mg/ml pH 6.0 Phos 0.2% BAK 0.005% Gly 2%, 3x/day 5 days, read-out: Mean [AH]
endpoint-name: concentration at 1 h

[[record]]
molecule = "Cl.NC(=O)c1c(OCc2c(F)cc(Br)cc2F)nsc1NC(=O)NCCCCN1CCCC1 [Compound-I, hydrochloride]"
endpoint_name = "concentration at 1 h"
value_reported = "20.6 nM"


---

assay-procedure: PK of topical ocular sodium phosphate-based Gel Drop, concentrations 1 hour after last dose
Format: in vivo, Dutch-belted rabbits
experimental-context: Dutch-belted, rabbit, aqueous humor (AH), 2 mg/ml, pH 6, 2 mg/ml pH 6.0 Phos 0.05% BAK 0.005% Gly 2% PS80 1% Tylox 0.2%, 3x/day 5 days, read-out: Mean [AH]
endpoint-name: concentration at 1 h (µM)

[[record]]
compound = "Cl.NC(=O)c1c(OCc2c(F)cc(Br)cc2F)nsc1NC(=O)NCCCCN1CCCC1 [Compound-I, hydrochloride]"
value_reported = 0.0182


---

assay-procedure: PK of topical ocular sodium phosphate-based Gel Drop, concentrations 1 hour after last dose
Format: in vivo, Dutch-belted rabbits
experimental-context: Dutch-belted, rabbit, choroid, 5 mg/ml, pH 6, 5 mg/ml pH 6 Phos 0.2% BAK 0.005% Gly 2% Osmo 273, 3x/day 5 days, read-out: MEAN [choroid]
Text: The Gel Drop of Compound-I was applied to eyes of Dutch-belted rabbits.
endpoint-name: concentration at 1 h (µM)

[[record]]
molecule = "Cl.NC(=O)c1c(OCc2c(F)cc(Br)cc2F)nsc1NC(=O)NCCCCN1CCCC1 [Compound-I, hydrochloride]"
value_reported = 1.16


---

assay-procedure: PK of topical ocular sodium phosphate-based Gel Drop, concentrations 1 hour after last dose
Assay type: in vivo, Dutch-belted rabbits
experimental-context: Dutch-belted, rabbit, choroid, 2 mg/ml, pH 6, 2 mg/ml pH 6 Phos 0.05% BAK 0.005% Gly 2% Osmo 244, 3x/day 5 days, read-out: MEAN [choroid]
endpoint-name: concentration at 1 h (nM)

[[record]]
molecule = "Cl.NC(=O)c1c(OCc2c(F)cc(Br)cc2F)nsc1NC(=O)NCCCCN1CCCC1 [Compound-I, hydrochloride]"
endpoint_name = "concentration at 1 h"
value_reported = 422


---

assay-procedure: PK of topical ocular sodium phosphate-based Gel Drop, concentrations 1 hour after last dose
Type: in vivo, Dutch-belted rabbits
experimental-context: Dutch-belted, rabbit, aqueous humor (AH), 1 mg/ml, pH 6, 1 mg/ml pH 6 BAK 0.005% Gly 2% Osmo 234, 3x/day 5 days, read-out: Mean [AH]
endpoint-name: concentration at 1 h (nM)

[[record]]
molecule = "Cl.NC(=O)c1c(OCc2c(F)cc(Br)cc2F)nsc1NC(=O)NCCCCN1CCCC1 [Compound-I, hydrochloride]"
endpoint_name = "concentration at 1 h"
measure_unit = "nM"
value_reported = 17.1


---

assay-procedure: PK of topical ocular sodium phosphate-based Gel Drop, concentrations 1 hour after last dose
Type: in vivo, Dutch-belted rabbits
experimental-context: Dutch-belted, rabbit, retina, 2 mg/ml, pH 6, 2 mg/ml pH 6 Phos 0.05% BAK 0.005% Gly 2% PS80 1% Osmo 261, 3x/day 5 days, read-out: Mean [retina]
endpoint-name: concentration at 1 h (nM)

[[record]]
molecule = "Cl.NC(=O)c1c(OCc2c(F)cc(Br)cc2F)nsc1NC(=O)NCCCCN1CCCC1 [Compound-I, hydrochloride]"
measure_unit = "nM"
value_reported = 126


---

assay-procedure: PK of topical ocular sodium phosphate-based Gel Drop, concentrations 1 hour after last dose
Format: in vivo, Dutch-belted rabbits
experimental-context: Dutch-belted, rabbit, retina, 2 mg/ml, pH 6, 2 mg/ml pH 6.0 Phos 0.2% BAK 0.005% Gly 2%, 3x/day 5 days, read-out: Mean [retina]
endpoint-name: concentration at 1 h (nM)

[[record]]
compound = "Cl.NC(=O)c1c(OCc2c(F)cc(Br)cc2F)nsc1NC(=O)NCCCCN1CCCC1 [Compound-I, hydrochloride]"
endpoint_name = "concentration at 1 h"
measure_unit = "nM"
value_reported = 34.8


---

assay-procedure: PK of topical ocular sodium phosphate-based Gel Drop, concentrations 1 hour after last dose
Format: in vivo, Dutch-belted rabbits
experimental-context: Dutch-belted, rabbit, plasma, 2 mg/ml, pH 6, 2 mg/ml pH 6 Phos 0.2% BAK 0.005% Gly 2% Osmo 257, 3x/day 5 days, read-out: [plasma]
endpoint-name: concentration at 1 h

[[record]]
molecule = "Cl.NC(=O)c1c(OCc2c(F)cc(Br)cc2F)nsc1NC(=O)NCCCCN1CCCC1 [Compound-I, hydrochloride]"
endpoint_name = "concentration at 1 h"
value_reported = "5.26 nM"


---

assay-procedure: PK of topical ocular sodium phosphate-based Gel Drop, concentrations 1 hour after last dose
Format: in vivo, Dutch-belted rabbits
experimental-context: Dutch-belted, rabbit, plasma, 1 mg/ml, pH 6, 1 mg/ml pH 6.0 Phos 0.2% BAK 0.005% Gly 2%, 3x/day 5 days, read-out: [plasma]
endpoint-name: concentration at 1 h (nM)

[[record]]
compound = "Cl.NC(=O)c1c(OCc2c(F)cc(Br)cc2F)nsc1NC(=O)NCCCCN1CCCC1 [Compound-I, hydrochloride]"
endpoint_name = "concentration at 1 h"
value_reported = 3.97


---

assay-procedure: PK of topical ocular sodium phosphate-based Gel Drop, concentrations 1 hour after last dose
Type: in vivo, Dutch-belted rabbits
experimental-context: Dutch-belted, rabbit, plasma, 2 mg/ml, pH 6, 2 mg/ml pH 6.0 Phos 0.05% BAK 0.005% Gly 2% PS80 1% Tylox 0.2%, 3x/day 5 days, read-out: [plasma]
endpoint-name: concentration at 1 h (nM)

[[record]]
molecule = "Cl.NC(=O)c1c(OCc2c(F)cc(Br)cc2F)nsc1NC(=O)NCCCCN1CCCC1 [Compound-I, hydrochloride]"
endpoint_name = "concentration at 1 h"
measure_unit = "nM"
value_reported = 4.36


---

assay-procedure: PK of topical ocular sodium phosphate-based Gel Drop, concentrations 1 hour after last dose
Assay type: in vivo, Dutch-belted rabbits
experimental-context: Dutch-belted, rabbit, choroid, 2 mg/ml, pH 6, 2 mg/ml pH 6.0 Phos 0.05% BAK 0.005% Gly 2%, 3x/day 5 days, read-out: MEAN [choroid]
endpoint-name: concentration at 1 h (nM)

[[record]]
compound = "Cl.NC(=O)c1c(OCc2c(F)cc(Br)cc2F)nsc1NC(=O)NCCCCN1CCCC1 [Compound-I, hydrochloride]"
value_reported = 528

